system: M059J (Glioblastoma); experiment: combination Emax (second highest fraction inhibited in the dose matrix, 72 h); higher = more inhibition; extreme values may be limits of the assay
READOUT TYPE: combination Emax
The response must contain the number and no unit.

Request: Using the record for C[C@@H]1COCCN1c1cc(C2([S@](C)(=N)=O)CC2)nc(-c2ccnc3[nH]ccc23)n1 [AZD6738] + C1CC(C1)(C(=O)[O-])C(=O)[O-].N.N.[Pt+2] [Carboplatin] (first compound max 10 µM, 7x7, partner max 10 µM) , state its measured combination Emax.
Response: 0.502

Request: Using the record for COc1cccc(OCCCN)c1-c1cc(Nc2cnc(C#N)cn2)n[nH]1 [Prexasertib] + Cc1cc2ncnn2cc1Nc1ncc2c(n1)n(C1CCOCC1)c(=O)n2C [AZD7648] (first compound max 1 µM, 7x7, partner max 10 µM) , state its measured combination Emax.
Response: 0.693

Request: Using the record for CN(CCO)CC[C@H](CSc1ccccc1)Nc1ccc(S(=O)(=O)NC(=O)c2ccc(N3CCC([C@@H](O)c4ccccc4-c4ccc(Cl)cc4)CC3)cc2)cc1S(=O)(=O)C(F)(F)F [AZD4320] + C=CCn1c(=O)c2cnc(Nc3ccc(N4CCN(C)CC4)cc3)nc2n1-c1cccc(C(C)(C)O)n1 [AZD1775] (first compound max 1 µM, partner max 1 µM) , state its measured combination Emax.
Response: 0.783

Request: Using the record for C=CCn1c(=O)c2cnc(Nc3ccc(N4CCN(C)CC4)cc3)nc2n1-c1cccc(C(C)(C)O)n1 [AZD1775] + CCc1c2c(nc3ccc(O)cc13)-c1cc3c(c(=O)n1C2)COC(=O)[C@]3(O)CC [SN-38] (first compound max 1 µM, partner max 0.3 µM) , state its measured combination Emax.
Response: 0.891

Every entry's value here was drawn from the supplement of paper PMC11061612.
